Target: T1, GIP receptor (human (printed as hGIPR), UniProt P48546 22-466)
T1 sequence (looked up): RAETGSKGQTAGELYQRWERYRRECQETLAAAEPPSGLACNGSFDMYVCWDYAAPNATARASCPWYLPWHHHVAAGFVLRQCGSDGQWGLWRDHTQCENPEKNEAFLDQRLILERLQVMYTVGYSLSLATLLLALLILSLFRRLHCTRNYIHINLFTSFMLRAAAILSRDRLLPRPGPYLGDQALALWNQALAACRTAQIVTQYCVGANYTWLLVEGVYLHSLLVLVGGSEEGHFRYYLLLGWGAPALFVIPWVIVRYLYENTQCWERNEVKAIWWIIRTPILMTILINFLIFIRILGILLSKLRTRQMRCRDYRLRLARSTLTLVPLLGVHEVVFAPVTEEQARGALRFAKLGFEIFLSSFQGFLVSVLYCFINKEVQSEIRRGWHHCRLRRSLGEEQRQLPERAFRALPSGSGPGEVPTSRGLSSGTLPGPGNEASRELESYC
Assay: cell-based or functional assay
Starred links: 1 amine or outer side, 2 acyl side, 3 side chain; linkers in the order of their positions; H or OH if unused. Non-standard residues stand in square brackets, D forms with d. Groups on a side chain read outwards from the residue. No end group written: not given here. *: point of attachment. C20 diacid = O=C(O)CCCCCCCCCCCCCCCCCCC(=O)*; C18 diacid = O=C(O)CCCCCCCCCCCCCCCCC(=O)*; γGlu = O=C(O)[C@H](CCC(=O)[*:2])N[*:1]; εLys = N[C@@H](CCCCN[*:1])C(=O)[*:2]; AEEA = NCCOCCOCC(=O)O; Aib = CC(C)(N)C(=O)O
Use EC50 hGIPR 100% hP (CreLuc) to assign classes; range list: Low = under 2 nM, Medium = from 2 nM up to 4 nM, High = 4 nM and over

Query: Class? Entry: Y[Aib]EGTFTSDYSI[Aib]LE[Aib]QAQ[Aib]AFVEWLIKGGPSSGASLRHYYNWLTRQRY-NH2 (not fully specified (residue 28); also: TFA salt) [Compound 199]
Result: High

Query: Given Y[Aib]EGTFTSDYSI[Aib]LEKQAQ[Aib]AFVEWLIKGGPSSYASLRHYYNWLTRQRY-NH2 (not fully specified (residue 28); also: TFA salt) [Compound 183] , name the class its EC50 hGIPR 100% hP (CreLuc) places it in.
Result: High

Query: Class label required: YXEGTFTSDYSIXLEKQAQXAFVEWLIKGGPSEGASLRHYYNWLTRQRY (Aib at 2, 13, 20; NMeR (N-methyl-L-arginine) at 48; K28 side chain carries C20DA-gGlu-gGlu-gGlu-gGlu-gGlu-gGlu-eLys; C-terminal amide) [Compound 236]
Result: Low

Query: Place this binder in its band: Y[Aib]EGTFTSDYSI[Aib]LEKQAQ[Aib]EFVEWLIK([AEEA-AEEA-γGlu-γGlu-γGlu-γGlu-C20 diacid])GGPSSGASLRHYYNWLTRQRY-NH2 (also: TFA salt) [Compound 205]
Result: Low

Query: Given YXEGTFTSDYSIXLEKQAQXAFVEWLIKGGPSEGVSLRHYYNWLTRQRY (Aib at 2, 13, 20; K28 side chain carries C20DA-gGlu-gGlu-gGlu-gGlu-gGlu-gGlu-eLys; C-terminal amide) [Compound 241] , name the class its EC50 hGIPR 100% hP (CreLuc) places it in.
Result: High

Query: Hello team, could you let me know which band the following binder falls into: YXEGTFTSDLSIXLEKQAQXAFVEWLIKGGPSEGASLRHYYNWLTRQRY (Aib at 2, 13, 20; K28 side chain carries C20DA-gGlu-gGlu-gGlu-gGlu-Glu-gGlu-eLys (so in the source); C-terminal amide) [Compound 234]
Result: Medium

Query: Could you place Y[Aib]EGTFTSDYSI[Aib]LEKQAQ[Aib]EFVQWLIK([γGlu-γGlu-γGlu-γGlu-γGlu-γGlu-C20 diacid])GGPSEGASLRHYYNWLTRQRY-NH2 (also: TFA salt) [Compound 185] in its proper category? Many thanks.
Result: High

Query: Band of YXEGTFTSDYSIXLEKQAQXAFVQWLIKGGPSEGASLRHYYNWLTRQRY (Aib at 2, 13, 20; K28 side chain carries C20DA-gGlu-gGlu-gGlu-gGlu-gGlu-gGlu-eLys; C-terminal amide) [Compound 220] ?
Result: Low

Query: Which bin, given its EC50 hGIPR 100% hP (CreLuc), does Y[Aib]EGTFTSDYSI[Aib]LEKQAQ[Aib]AFVQWLIK([AEEA-AEEA-γGlu-γGlu-γGlu-γGlu-C18 diacid])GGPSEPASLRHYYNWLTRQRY-NH2 (also: TFA salt) [Compound 173] occupy?
Result: Low

Query: Please report the category associated with Y[Aib]EGTFTSDYSI[Aib]LEKQAQ[Aib]AFVEWLIK([γGlu-γGlu-γGlu-γGlu-γGlu-γGlu-C20 diacid])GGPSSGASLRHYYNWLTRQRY-NH2 (also: TFA salt) [Compound 235] , nothing else.
Result: Medium

Query: Assign a bin to Y[Aib]EGTFTSDYSI[Aib]LEKQAE[Aib]AFVQWLIK([εLys-γGlu-γGlu-γGlu-γGlu-γGlu-C20 diacid])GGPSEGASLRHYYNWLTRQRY-NH2 (also: TFA salt) [Compound 200]
Result: Medium

Query: Please indicate the class for YXEGTFTSDYSIXLEKQAQXAFVEWLIKGGPSEGESLRHYYNWLTRQRY (Aib at 2, 13, 20; K28 side chain carries C20DA-gGlu-gGlu-gGlu-gGlu-gGlu-gGlu-eLys; C-terminal amide) [Compound 237] based on its EC50 hGIPR 100% hP (CreLuc).
Result: Low

Query: Band assignment needed for Y[Aib]EGTFTSDYSI[Aib]LEKQAQ[Aib]AFVQWLIK([AEEA-AEEA-Glu-Glu-Glu-C18 diacid])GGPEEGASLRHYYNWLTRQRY-NH2 (also: TFA salt) [Compound 188] please.
Result: Low

Query: Sort into band: Y[Aib]EGTFTSDYSI[Aib]LEKQAQ[Aib]AFVQWLIK([εLys-γGlu-γGlu-γGlu-γGlu-γGlu-C20 diacid])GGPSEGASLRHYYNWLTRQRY-NH2 (also: TFA salt) [Compound 242]
Result: Low

Query: Any idea which band Y[Aib]EGTFTSDYSI[Aib]LEKQAQ[Aib]AFVEWLIKGGPSSPASLRHYYNWLTRQRY-NH2 (not fully specified (residue 28); also: TFA salt) [Compound 178] is in?
Result: High

Query: For the record Y[Aib]EGTFTSDYSI[Aib]LEKQAQ[Aib]AFVQWLIK([AEEA-AEEA-γGlu-γGlu-γGlu-γGlu-C20 diacid])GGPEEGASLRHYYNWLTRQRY-NH2 (also: TFA salt) [Compound 193] , report the class its EC50 hGIPR 100% hP (CreLuc) corresponds to.
Result: Medium

Query: Lab note: which band did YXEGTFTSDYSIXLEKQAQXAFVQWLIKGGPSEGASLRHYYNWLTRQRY (Aib at 2, 13, 20; K28 side chain carries C18DA-E-E-E-E-E (SEQ ID NO: 636); C-terminal amide) [Compound 257] land in?
Result: Low
